The reported numbers originate from patent US20240417405A1.

Molecular target: menin/MLL (terbium chelate-labeled menin, FITC-MBM1 peptide) (Homo sapiens, UniProt O00255, T541A)
Construct: Menin (a.a 1-610-6xhis tag)
Sequence (O00255 with tags, fused parts or gaps T541A): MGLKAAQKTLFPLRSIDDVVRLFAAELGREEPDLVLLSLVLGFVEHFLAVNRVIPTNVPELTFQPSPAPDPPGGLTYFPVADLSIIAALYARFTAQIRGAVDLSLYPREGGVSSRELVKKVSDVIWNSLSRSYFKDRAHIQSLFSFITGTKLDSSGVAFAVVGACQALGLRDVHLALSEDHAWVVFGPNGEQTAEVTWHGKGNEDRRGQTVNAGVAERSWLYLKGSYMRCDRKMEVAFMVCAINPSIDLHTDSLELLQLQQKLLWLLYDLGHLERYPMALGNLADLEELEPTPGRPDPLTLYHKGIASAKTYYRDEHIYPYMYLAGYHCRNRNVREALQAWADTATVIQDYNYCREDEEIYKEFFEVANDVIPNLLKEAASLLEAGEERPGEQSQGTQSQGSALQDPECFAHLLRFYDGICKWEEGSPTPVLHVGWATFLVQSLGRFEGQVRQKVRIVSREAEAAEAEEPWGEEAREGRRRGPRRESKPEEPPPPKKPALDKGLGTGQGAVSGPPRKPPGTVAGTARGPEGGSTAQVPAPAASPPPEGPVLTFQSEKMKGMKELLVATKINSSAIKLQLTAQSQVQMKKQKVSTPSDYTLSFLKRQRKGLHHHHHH
Experiment: Menin/MLL homogenous time-resolved fluorescence (HTRF) assay
Conditions: 30 min incubation
Could you please report measured IC50 for the items listed next?

Report measured IC50; entry is COC1(C)CN([C@H]2C[C@@H]([C@H](C(C)C)N3CC4(CCN(c5ncnnc5Oc5ccc(F)cc5-c5nnccc5C5CC5)C4)C3)C2)C1 (single isomer, unassigned)
0.2 nM

Return the recorded IC50 value; entry: CC(C)[C@H]([C@H]1C[C@@H](NC2CC2)C1)N1CC2(CCN(c3ncnnc3Oc3ccc(F)cc3-c3ncccc3C3CC3)C2)C1 (single isomer, unassigned)
0.2 nM

Retrieve IC50 measured for CC(C)[C@H](C1CC2(C1)CN(CC1COC1)C2)N1CC2(CCN(c3ncnnc3Oc3ccc(F)cc3-c3cncnc3C3CC3)C2)C1 (single isomer, unassigned) and print it.
0.4 nM

Output IC50 of `CC(=O)N[C@@H]1CCN([C@H]2C[C@@H]([C@H](C(C)C)N3CC4(CCN(c5ncnnc5Oc5ccc(F)cc5-c5cnc(C)nc5C5CC5)C4)C3)C2)C1`
0.046 nM

Query IC50 for CC(=O)N[C@H]1C[C@@H](C(C(C)C)N2CC3(CCN(c4ncnnc4Oc4ccc(F)cc4-c4cnncc4C4CC4)C3)C2)C1 (some centres unmarked)
0.8 nM
